assay: Plasma concentration of Compound 54 after intratracheal administration (HPLC); format: in vivo, Sprague-Dawley rats; details: Sprague-Dawley, rat, other: intratracheal (into the trachea via intubation), 2 mg per rat, Rat 1, 30 min post-intubation, 0.2 mL of 10 mg/mL solution in saline, read-out: Plasma Concentration Rat 1
Measurement Type: concentration at 30 min (ng/mL)
Quick reminder: number only, in ng/mL, skip the unit.

Tell me the measured concentration at 30 min of `CNC(=O)[C@H]1O[C@@H](n2cnc3c(NC)nc(C#N)nc32)[C@@H]2OP(=O)(O)O[C@@H]21` , please.
232

###

test: Plasma concentration of Compound 54 after intratracheal administration (HPLC); assay type: in vivo, Sprague-Dawley rats; settings: Sprague-Dawley, rat, other: intratracheal (into the trachea via intubation), 2 mg per rat, mean of two rats, 10 min post-intubation, 0.2 mL of 10 mg/mL solution in saline, read-out: Mean Plasma Concentration
Measurement Type: concentration at 10 min (ng/mL)
Please respond with the number in ng/mL and leave the unit unwritten.

Which concentration at 10 min value is on record for `CNC(=O)[C@H]1O[C@@H](n2cnc3c(NC)nc(C#N)nc32)[C@@H]2OP(=O)(O)O[C@@H]21` ?
728

###

assay: Plasma concentration of Compound 54 after intratracheal administration (HPLC); type: in vivo, Sprague-Dawley rats; conditions: Sprague-Dawley, rat, other: intratracheal (into the trachea via intubation), 2 mg per rat, mean of two rats, 120 min post-intubation, 0.2 mL of 10 mg/mL solution in saline, read-out: Mean Plasma Concentration
Measurement Type: concentration at 120 min
Write the figure, then the unit, nothing else.

# query: concentration at 120 min of entry `CNC(=O)[C@H]1O[C@@H](n2cnc3c(NC)nc(C#N)nc32)[C@@H]2OP(=O)(O)O[C@@H]21`
9.6 ng/mL

###

assay: Plasma concentration of Compound 54 after intratracheal administration (HPLC); format: in vivo, Sprague-Dawley rats; details: Sprague-Dawley, rat, other: intratracheal (into the trachea via intubation), 2 mg per rat, Rat 1, 60 min post-intubation, 0.2 mL of 10 mg/mL solution in saline, read-out: Plasma Concentration Rat 1
Measurement Type: concentration at 60 min
The reply must contain the numeric value and, after it, the unit.

I'd like to know its concentration at 60 min. The compound in question is `CNC(=O)[C@H]1O[C@@H](n2cnc3c(NC)nc(C#N)nc32)[C@@H]2OP(=O)(O)O[C@@H]21`
69.3 ng/mL

###

assay: Plasma concentration of Compound 54 after intratracheal administration (HPLC); format: in vivo, Sprague-Dawley rats; conditions: Sprague-Dawley, rat, other: intratracheal (into the trachea via intubation), 2 mg per rat, second rat column (head printed Rat 1), 120 min post-intubation, 0.2 mL of 10 mg/mL solution in saline, read-out: Plasma Concentration Rat 1
Measurement Type: concentration at 120 min (ng/mL)
# unit: ng/mL | format: bare number

Given CNC(=O)[C@H]1O[C@@H](n2cnc3c(NC)nc(C#N)nc32)[C@@H]2OP(=O)(O)O[C@@H]21 [Compound 54] , state its recorded concentration at 120 min.
9.5

###

experiment: Plasma concentration of Compound 54 after intratracheal administration (HPLC); assay type: in vivo, Sprague-Dawley rats; details: Sprague-Dawley, rat, other: intratracheal (into the trachea via intubation), 2 mg per rat, second rat column (head printed Rat 1), 60 min post-intubation, 0.2 mL of 10 mg/mL solution in saline, read-out: Plasma Concentration Rat 1
Measurement Type: concentration at 60 min
Write the numeric value and append its unit.

Tell me the measured concentration at 60 min of `CNC(=O)[C@H]1O[C@@H](n2cnc3c(NC)nc(C#N)nc32)[C@@H]2OP(=O)(O)O[C@@H]21` , please.
26 ng/mL
